Examples of binders with documented AtheNA signal follow.
Target: T1, histidine-tRNA ligase (Jo-1) (UniProt P12081 2-509)
T1 sequence (looked up): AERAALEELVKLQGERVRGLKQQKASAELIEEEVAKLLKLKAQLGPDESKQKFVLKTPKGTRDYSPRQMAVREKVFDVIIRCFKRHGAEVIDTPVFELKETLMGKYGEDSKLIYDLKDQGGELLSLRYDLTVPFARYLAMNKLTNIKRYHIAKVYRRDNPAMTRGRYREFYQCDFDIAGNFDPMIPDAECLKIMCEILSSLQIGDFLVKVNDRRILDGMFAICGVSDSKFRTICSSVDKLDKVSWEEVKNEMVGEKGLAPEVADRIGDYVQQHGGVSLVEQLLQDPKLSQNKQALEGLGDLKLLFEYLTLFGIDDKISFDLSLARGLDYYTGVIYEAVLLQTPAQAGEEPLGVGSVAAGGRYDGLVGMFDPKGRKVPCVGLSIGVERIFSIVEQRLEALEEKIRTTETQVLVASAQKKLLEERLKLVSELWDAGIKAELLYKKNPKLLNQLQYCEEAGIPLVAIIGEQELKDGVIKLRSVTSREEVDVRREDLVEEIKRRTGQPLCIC
Test: AtheNA Multi-Lyte ANA, Ab at 6.25 ug/ml;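 further: monoclonal antibodies screened for reactivity against a panel of nuclear autoantigens, with an anti-HIV and an anti-RSV monoclonal antibody serving as controls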

Binder	AtheNA signal
Ab7968 (antibody, IgG1, V domains shown, Recombinant human antibody with IgG1 heavy chain backbone and kappa light chain constant; they begin at LVESGGG and MTQSP; also called mAb 7968; mAb7968) VH: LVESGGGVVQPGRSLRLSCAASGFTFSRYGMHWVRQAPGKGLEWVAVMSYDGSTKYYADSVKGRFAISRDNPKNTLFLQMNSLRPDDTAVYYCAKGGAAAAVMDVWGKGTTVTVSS VL: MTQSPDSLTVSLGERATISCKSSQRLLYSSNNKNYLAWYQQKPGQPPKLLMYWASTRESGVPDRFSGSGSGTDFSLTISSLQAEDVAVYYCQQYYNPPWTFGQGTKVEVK	4
Ab7962/293i (antibody, V domains shown, Recombinant human antibody with IgG1 heavy chain backbone and kappa light chain constant (IgM in the donor B cell); they begin at LVESGGG and MTQSL; also called clone 27; pH007962/pK005996) VH: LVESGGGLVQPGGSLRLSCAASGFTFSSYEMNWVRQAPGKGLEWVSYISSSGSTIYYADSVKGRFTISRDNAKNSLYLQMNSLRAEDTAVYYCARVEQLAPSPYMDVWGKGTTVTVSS VL: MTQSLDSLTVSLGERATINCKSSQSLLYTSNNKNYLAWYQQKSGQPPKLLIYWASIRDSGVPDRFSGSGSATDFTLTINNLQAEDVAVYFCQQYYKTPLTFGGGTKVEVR	4
Ab7960/293i (antibody, IgG1, V domains shown, Recombinant human antibody with IgG1 heavy chain backbone and kappa light chain constant; they begin at LVESGGG and MTQSP; also called mAb 7960; mAb7960) VH: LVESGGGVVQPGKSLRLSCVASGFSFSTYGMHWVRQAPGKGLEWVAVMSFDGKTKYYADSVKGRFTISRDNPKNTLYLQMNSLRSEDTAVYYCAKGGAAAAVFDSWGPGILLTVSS VL: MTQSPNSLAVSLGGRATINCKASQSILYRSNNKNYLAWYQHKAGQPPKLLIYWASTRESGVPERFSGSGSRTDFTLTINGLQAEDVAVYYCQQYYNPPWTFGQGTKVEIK	2
Ab7957/293i (antibody, IgG1, V domains shown, Recombinant human antibody with IgG1 heavy chain backbone and kappa light chain constant; they begin at LVESGGG and MTQSP; also called Ab7957i; mAb 7957) VH: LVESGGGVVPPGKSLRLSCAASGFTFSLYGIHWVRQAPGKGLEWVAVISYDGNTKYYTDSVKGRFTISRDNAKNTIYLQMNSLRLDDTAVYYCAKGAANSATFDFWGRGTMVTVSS VL: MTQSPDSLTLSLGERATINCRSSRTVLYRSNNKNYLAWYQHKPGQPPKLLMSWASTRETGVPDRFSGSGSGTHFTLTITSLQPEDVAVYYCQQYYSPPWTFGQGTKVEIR	3
